Target: UniProt:Q06124
Sequence (Q06124 1-593): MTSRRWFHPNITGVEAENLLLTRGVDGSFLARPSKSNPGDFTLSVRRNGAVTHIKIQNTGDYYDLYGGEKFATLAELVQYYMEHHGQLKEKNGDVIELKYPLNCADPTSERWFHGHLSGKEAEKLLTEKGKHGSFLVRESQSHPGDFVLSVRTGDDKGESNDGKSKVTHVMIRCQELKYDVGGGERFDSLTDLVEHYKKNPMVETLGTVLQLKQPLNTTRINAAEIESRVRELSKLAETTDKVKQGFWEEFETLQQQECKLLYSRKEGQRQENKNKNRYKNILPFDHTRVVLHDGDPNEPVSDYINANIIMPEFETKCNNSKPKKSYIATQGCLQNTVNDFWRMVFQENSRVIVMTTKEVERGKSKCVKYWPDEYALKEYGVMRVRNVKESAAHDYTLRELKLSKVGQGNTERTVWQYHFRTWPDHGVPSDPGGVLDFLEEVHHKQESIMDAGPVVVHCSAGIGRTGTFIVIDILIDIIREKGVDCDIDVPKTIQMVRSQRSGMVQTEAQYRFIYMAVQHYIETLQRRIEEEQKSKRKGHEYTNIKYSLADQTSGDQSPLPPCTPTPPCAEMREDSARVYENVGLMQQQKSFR
Assay: Measurement of SHP2 protein degradation in NCI-H358 cells (western blotting)
Assay type: cell-based
Design: endogenous in cells; host or cells: NCI-H358
Conditions: 0.1 μM, harvested after 24 hours

compound	SHP2% degradation
Cc1ncsc1-c1ccc(CNC(=O)[C@@H]2C[C@@H](O)CN2C(=O)[C@@H](NC(=O)C2(F)CC2)C(C)(C)C)c(O[C@H]2CC[C@H](C(=O)N3CC(Nc4cccc(Sc5cnc(N6CCC7(CC6)Cc6ncccc6[C@H]7N)cn5)c4Cl)C3)CC2)c1 [Example 15]	99.6%
Cc1cn([C@H](C(=O)N2C[C@H](O)C[C@H]2C(=O)NCc2ccc(-c3scnc3C)cc2OC2CCN(C(=O)C3CCN(c4nccc(Sc5cnc(N6CCC7(CC6)CO[C@@H](C)[C@H]7N)c(CO)n5)c4Cl)CC3)CC2)C(C)C)nn1 [Example 110]	99.8%
Cc1ncsc1-c1ccc(CNC(=O)[C@@H]2C[C@@H](O)CN2C(=O)[C@H](C(C)C)n2cc(C3CC3)nn2)c(OC2CCN(C(=O)C3CCN(c4nccc(Sc5cnc(N6CCC(C)(N)CC6)c(CO)n5)c4Cl)CC3)CC2)c1 [Example 105]	97.9%
